# Lookup of reported logFC.mEQ.over.Luc keyed by entry
# systemName: mouse ADAMTS7 (Mus musculus, UniProt Q68SA9, E373Q)
# Construct: Full-length mouse Adamts7 1-1857 (Uniprot Q68SA9, WT or E373Q catalytic mutant); expressed in transfected cells; host or cells: Human Coronary Artery Smooth Muscle Cells (HCA-SMC, Lonza), adenovirus 50 MOI
# Sequence (Q68SA9 221-1657 E373Q): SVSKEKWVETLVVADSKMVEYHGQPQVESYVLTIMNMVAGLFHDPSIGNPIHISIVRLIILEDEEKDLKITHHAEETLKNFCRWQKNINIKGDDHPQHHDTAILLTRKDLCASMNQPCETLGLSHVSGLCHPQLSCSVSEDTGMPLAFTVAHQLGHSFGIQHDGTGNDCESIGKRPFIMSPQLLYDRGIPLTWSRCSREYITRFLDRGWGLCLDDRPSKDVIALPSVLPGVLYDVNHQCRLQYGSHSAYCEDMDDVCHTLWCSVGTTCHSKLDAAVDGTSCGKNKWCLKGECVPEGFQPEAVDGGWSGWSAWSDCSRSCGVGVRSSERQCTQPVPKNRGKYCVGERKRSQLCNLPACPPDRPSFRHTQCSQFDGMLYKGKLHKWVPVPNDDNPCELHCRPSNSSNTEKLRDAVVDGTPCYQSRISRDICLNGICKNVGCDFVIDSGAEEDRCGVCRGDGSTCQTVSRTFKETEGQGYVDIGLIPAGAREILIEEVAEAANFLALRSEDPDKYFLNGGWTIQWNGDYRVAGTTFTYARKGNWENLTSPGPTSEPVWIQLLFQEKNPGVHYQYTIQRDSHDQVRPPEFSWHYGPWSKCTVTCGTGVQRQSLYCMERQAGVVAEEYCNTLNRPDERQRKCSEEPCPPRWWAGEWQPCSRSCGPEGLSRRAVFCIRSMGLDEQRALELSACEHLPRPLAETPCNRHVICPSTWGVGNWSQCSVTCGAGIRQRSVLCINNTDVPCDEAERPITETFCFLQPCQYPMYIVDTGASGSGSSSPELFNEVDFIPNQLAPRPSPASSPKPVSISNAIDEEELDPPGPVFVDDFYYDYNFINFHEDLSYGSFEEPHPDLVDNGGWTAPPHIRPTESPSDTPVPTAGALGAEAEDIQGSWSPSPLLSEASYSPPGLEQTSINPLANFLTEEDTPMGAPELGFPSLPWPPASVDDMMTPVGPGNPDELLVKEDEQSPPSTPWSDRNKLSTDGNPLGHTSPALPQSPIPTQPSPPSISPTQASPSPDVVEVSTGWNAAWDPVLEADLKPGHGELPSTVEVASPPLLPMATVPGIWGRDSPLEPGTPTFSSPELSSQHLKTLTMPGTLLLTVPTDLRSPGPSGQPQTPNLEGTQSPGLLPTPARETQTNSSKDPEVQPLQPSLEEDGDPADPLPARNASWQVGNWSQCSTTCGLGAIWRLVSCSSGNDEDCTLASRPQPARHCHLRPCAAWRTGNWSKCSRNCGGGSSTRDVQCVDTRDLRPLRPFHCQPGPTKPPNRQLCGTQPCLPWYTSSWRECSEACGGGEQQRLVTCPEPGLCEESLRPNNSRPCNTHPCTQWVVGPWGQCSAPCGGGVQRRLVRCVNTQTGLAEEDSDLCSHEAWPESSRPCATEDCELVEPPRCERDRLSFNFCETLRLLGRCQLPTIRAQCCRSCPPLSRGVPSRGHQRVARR
# experimentNotes: TMT10 TAILS N-terminomics, HUVEC experiment (process replicates, trypsin/AspN digest)
# Format: cell-based, human
# conditionContext: HUVEC TAILS HC; log fold change of N-terminal peptide, Ad-mADAMTS7 EQ over Luc

{"substance": "FN1_1624 (LVQTAVTTIPAPT; listed as Homo sapiens)", "logFC.mEQ.over.Luc": "−0.16"}
{"substance": "LOX_124 (WFQAGYSTSR; listed as Homo sapiens)", "logFC.mEQ.over.Luc": 0.03}
{"substance": "THBS1_630 (FGQGVEHATANK; listed as Homo sapiens)", "logFC.mEQ.over.Luc": "−0.01"}
